Test system: enolase-pyruvate kinase-LDH
Assay: Counter screening: control linked enzyme assay with 2PG
Assay type: biochemical
Conditions: 0.5 μM compound, pyruvate kinase M2, LDH without PGAM1, mean ± s.d. (n = 2)
MEASURED QUANTITY: Inhibition in the Control Linked Enzyme Assay (0.5 μM) (%)
The answer is to be given in %; state only the numeric part.

>>> df
                                   compound                    tested_on  reported_result
0  O=C1c2ccccc2C(=O)c2c1cc(NS(=O)(=O)c1ccc(Cl)cc1)c(O)c2O [Compound 9i]  enolase-pyruvate kinase-LDH             −6.4
1  O=C1c2ccccc2C(=O)c2c1cc(NS(=O)(=O)c1ccccc1Br)c(O)c2O [Compound 9n]  enolase-pyruvate kinase-LDH              6.1

Please tell me: Inhibition in the Control Linked Enzyme Assay (0.5 μM) of O=C1c2ccccc2C(=O)c2c1cc(NS(=O)(=O)c1ccccc1F)c(O)c2O [Compound 9g] , system enolase-pyruvate kinase-LDH? 10.2

# iterate: O=C1c2ccccc2C(=O)c2c1cc(NS(=O)(=O)c1ccc(OC(F)(F)F)cc1)c(O)c2O [Compound 9c] 3.7

# iterate: O=C1c2ccccc2C(=O)c2c1cc(NS(=O)(=O)c1ccc(C(F)(F)F)cc1)c(O)c2O [Compound 9a] 8.0

# iterate: O=C1c2ccccc2C(=O)c2c1cc(NS(=O)(=O)c1cccc(F)c1F)c(O)c2O [Compound 9h] 0.06

# iterate: O=C1c2ccccc2C(=O)c2c1cc(NS(=O)(=O)c1ccc(Cl)cc1Cl)c(O)c2O [Compound 9j] −2.0

# iterate: O=C1c2ccccc2C(=O)c2c1cc(NS(=O)(=O)c1ccc(Br)cc1)c(O)c2O [Compound 9m] −0.1

* * *

Target: PGAM1 (Homo sapiens, UniProt P18669)
Construct: His6 (C); made in house
Sequence (P18669 whole entry): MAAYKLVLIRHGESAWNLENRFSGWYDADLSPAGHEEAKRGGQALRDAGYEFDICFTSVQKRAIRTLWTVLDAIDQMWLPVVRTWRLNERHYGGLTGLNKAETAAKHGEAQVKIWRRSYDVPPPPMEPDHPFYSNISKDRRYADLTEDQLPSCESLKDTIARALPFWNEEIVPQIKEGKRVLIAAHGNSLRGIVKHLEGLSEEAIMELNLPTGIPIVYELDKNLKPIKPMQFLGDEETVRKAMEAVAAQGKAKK
Experiment: PGAM1 enzymatic assay (enolase-pyruvate kinase-LDH coupled, OD 340 nm)
Assay type: biochemical
Conditions: 10 μM compound; mean ± s.d. (n = 2)
Answer Not fulfilled if inhibition at 10 µM is under 10%, and Fulfilled if it is 10% or more.

Below, 5 compounds whose answers are already recorded.
>>> df
                                   compound  qualitative_label
0  O=C(O)COc1cc(NS(=O)(=O)c2ccc(Cl)cc2)c2c(c1O)C(=O)c1ccccc1C2=O [Compound 13]          Fulfilled
1  CN(C)C(=O)COc1ccc2c(c1O)C(=O)c1ccccc1C2=O [Compound 6e]          Fulfilled
2  CCOC(=O)COc1ccc2c(c1O)C(=O)c1ccccc1C2=O [Compound 6c]      Not fulfilled
3  O=C(O)COc1ccc2c(c1O)C(=O)c1ccccc1C2=O [Compound 6d]      Not fulfilled
4  CCOC(=O)COc1ccc2c(c1OCC(=O)OCC)C(=O)c1ccccc1C2=O [Compound 6a]      Not fulfilled

Now for another entry.
Evaluate O=C(O)COc1ccc2c(c1OCC(=O)O)C(=O)c1ccccc1C2=O [Compound 6b] : inhibition at 10 µM at minimum 10%? Fulfilled

* * *

Molecular target: PGAM1 (Homo sapiens, UniProt P18669)
Construct: His6 (C); made in house
Assay: PGAM1 enzymatic assay (enolase-pyruvate kinase-LDH coupled, OD 340 nm)
Assay type: biochemical
Conditions: optimized enzymatic assay; mean ± s.d. (n = 3)
Protocol: Firstly, 1 μL inhibitor in dimethyl sulfoxide (DMSO) incubated with 49 μL 4.6 nM recombinant PGAM1, then 50 μL enzyme mix containing 3 units/mL enolase (Sigma-Aldrich, Saint Louis, MO, USA), 3 units/mL recombinant pyruvate kinase M2 (Sigma-Aldrich), 0.6 units/mL recombinant lactatdehydrogenase (LDH, Sigma-Aldrich), 100 mM Tris-HCl, 100 mM KCl, 5 mM MgCl2, 1 mM adenosine diphosphate (ADP), 0.2 mM the reduced form of nicotinamide adenine dinucleotide (NADH) and 4 mM 3PG was added. […]
This listing pairs molecules with measured pIC50.
// returns pIC50 (minus log10 of molar concentration), number only

>>> df
                                   molecule                             tested_on  reported_result
0  NNC(=O)COc1c(NS(=O)(=O)c2ccc(Cl)cc2)cc2c(c1O)C(=O)c1ccccc1C2=O [Compound 14f]  PGAM1 (Homo sapiens, UniProt P18669)             5.70

Param item = O=C1c2ccccc2C(=O)c2c1cc(NS(=O)(=O)c1cccc(F)c1F)c(O)c2O ; retrieve measured pIC50. 6.05

* * *

Tested on: enolase-pyruvate kinase-LDH
Assay: Counter screening: control linked enzyme assay with 2PG
Assay type: biochemical
Settings: 0.5 μM compound, pyruvate kinase M2, LDH without PGAM1, mean ± s.d. (n = 2)
MEASURED QUANTITY: Inhibition in the Control Linked Enzyme Assay (0.5 μM) (%)
The answer is to be given in %; state only the numeric part.

>>> df
                                smiles_code                    tested_on  unit_label  reported_result
0  O=C1c2ccccc2C(=O)c2c1cc(NS(=O)(=O)c1c(Cl)cccc1Cl)c(O)c2O  enolase-pyruvate kinase-LDH           %              0.5
1  O=C1c2ccccc2C(=O)c2c1cc(NS(=O)(=O)c1ccc([N+](=O)[O-])cc1)c(O)c2O  enolase-pyruvate kinase-LDH           %             −2.9
2  O=C1c2ccccc2C(=O)c2c1cc(NS(=O)(=O)c1ccc(I)cc1)c(O)c2O  enolase-pyruvate kinase-LDH           %              1.9

Now, please, on to the next compound.
Param item = O=C1c2ccccc2C(=O)c2c1cc(NS(=O)(=O)c1ccccc1I)c(O)c2O ; retrieve measured Inhibition in the Control Linked Enzyme Assay (0.5 μM). −2.3

* * *

This listing pairs compounds with measured pIC50.
Molecular target: PGAM1 (Homo sapiens, UniProt P18669)
Construct: His6 (C); made in house
Test: PGAM1 enzymatic assay (enolase-pyruvate kinase-LDH coupled, OD 340 nm)
Format: biochemical
Conditions: optimized enzymatic assay; mean ± s.d. (n = 3)
// returns pIC50 (minus log10 of molar concentration), number only

Some compounds with recorded pIC50:
In [3]: df
Out[3]:
                                smiles_code  measured_quantity  reported_result
0  O=C1c2ccccc2C(=O)c2c1cc(NS(=O)(=O)c1ccc(I)cc1)c(O)c2O              pIC50             6.33
1  O=C1c2ccccc2C(=O)c2c1cc(NS(=O)(=O)c1ccccc1I)c(O)c2O              pIC50             6.59

Now, please, on to the next compound.
Please tell me: pIC50 of O=C1c2ccccc2C(=O)c2c1cc(NS(=O)(=O)c1c(Cl)cccc1Cl)c(O)c2O , system PGAM1 (Homo sapiens, UniProt P18669)? 6.05

* * *

Tested on: H1299 cells
Experiment: Cell viability assay (MTT, 72 h), H1299
Assay type: cell-based
Conditions: Homo sapiens, NCI-H1299, proliferation, mean ± s.d. (n = 3)
MEASURED QUANTITY: pIC50
// returns pIC50 (minus log10 of molar concentration), number only

Param item = O=C1c2ccccc2C(=O)c2c1cc(NS(=O)(=O)c1ccc(F)cc1)c(O)c2O ; retrieve measured pIC50. 4.62

# iterate: O=C1c2ccccc2C(=O)c2c1cc(NS(=O)(=O)c1ccccc1I)c(O)c2O 4.58

# iterate: O=C1c2ccccc2C(=O)c2c1cc(NS(=O)(=O)c1ccc([N+](=O)[O-])cc1)c(O)c2O 4.59

* * *

This listing pairs compounds with measured IC50.
System: H1299 cells
Experiment: Cell viability assay (MTT, 72 h), H1299
Format: cell-based
Conditions: Homo sapiens, NCI-H1299, proliferation, mean ± s.d. (n = 3)
Procedure: The H1299 cell line was obtained from Guangzhou Jenniobio Biotechnology Co., Ltd. (Guangzhou, China), PC9 and A549 cells were gifted from Deng Jiong’s lab in the School of Medicine, Shanghai Jiao Tong University, Shanghai, China). […] After incubation with 0.5 mg/mL methylthiazolyldiphenyl-tetrazolium bromide (MTT) for 4 h, cell viability was measured as the OD at 570 nm.
The answer is to be given in µM; state only the numeric part.

Param item = O=C1c2ccccc2C(=O)c2c1cc(NS(=O)(=O)c1ccc(Cl)cc1Cl)c(O)c2O ; retrieve measured IC50. 23.7

# iterate: CS(=O)(=O)Oc1c(NS(=O)(=O)c2ccc(Cl)cc2)cc2c(c1O)C(=O)c1ccccc1C2=O [Compound 14g] 28.5

# iterate: O=C1c2ccccc2C(=O)c2c1cc(NS(=O)(=O)c1cccc(Br)c1)c(O)c2O 24.5
